# SYSTEM_NAME: human GPBAR1 (Homo sapiens)
# Construct: expressed in transfected cells; host or cells: HEK-293T
# Sequence (Q8TDU6 whole entry): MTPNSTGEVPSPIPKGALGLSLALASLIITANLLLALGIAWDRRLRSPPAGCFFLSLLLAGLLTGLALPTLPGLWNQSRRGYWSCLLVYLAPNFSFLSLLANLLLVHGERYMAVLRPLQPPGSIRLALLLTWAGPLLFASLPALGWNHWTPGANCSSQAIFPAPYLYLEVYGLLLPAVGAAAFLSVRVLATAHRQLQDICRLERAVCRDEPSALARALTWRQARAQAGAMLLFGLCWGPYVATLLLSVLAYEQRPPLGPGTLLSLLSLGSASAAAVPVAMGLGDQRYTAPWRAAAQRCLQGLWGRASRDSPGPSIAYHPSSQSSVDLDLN
# ASSAY_METHOD_TEXT: GPBAR1 mediated transactivation (CRE luciferase reporter) in transfected HEK-293T cells
# Assay type: cell-based
# APPLIED_CONDITIONS: each compound at 10 microM, transactivation activity of TLCA on CRE = 100%
# Protocol: Each compound was tested at the concentration of 10 microM and transactivation activity of CDCA on FXR and TLCA on CRE (i.e. TGR5/GPBAR1) was considered equal to 100%. Biological Activities. […] At 24 h post-transfection, cells were stimulated for 18 h with 10 μM TLCA as a control agent or putative GPBAR1 agonists as the same concentration. […] Luminescence was measured using Glomax 20/20 luminometer. […]
Listing: GPBAR1 (% of activity in comparison to 10 μM TLCA) of selected compounds
Enter your answer as a number in %; do not include the unit.

Consider the reported GPBAR1 (% of activity in comparison to 10 μM TLCA) for these compounds:
CC[C@H]1[C@@H](O)C2C3CC[C@H]([C@H](C)CCCCCOS(=O)(=O)O)[C@@]3(C)CCC2[C@@]2(C)CC[C@@H](O)C[C@@H]12 (some centres unmarked) [BAR804] = 52.5
CC[C@H]1[C@@H](O)[C@@H]2[C@H](CC[C@]3(C)[C@@H]([C@H](C)CCCO)CC[C@@H]23)[C@@]2(C)CC[C@H](O)C[C@@H]12 [BAR706, 6α-ethyl-3β,7α-dihydroxy-5β-cholan-24-ol] = 66.05
C[C@H](CCCOS(=O)(=O)O)[C@H]1CCC2C3CC[C@@H]4CCCC[C@]4(C)C3CC[C@@]21C (some centres unmarked) [BAR407] = 37.3
CC[C@H]1[C@H](O)[C@@H]2[C@H](CC[C@]3(C)[C@@H]([C@H](C)CCCO)CC[C@@H]23)[C@@]2(C)CCCC[C@@H]12 [BAR703, 6α-ethyl-7β-hydroxy-5β-cholan-24-ol] = 47.7

Next compound, GPBAR1 (% of activity in comparison to 10 μM TLCA) to be filled in.
Print human GPBAR1 (Homo sapiens) GPBAR1 (% of activity in comparison to 10 μM TLCA) for CC[C@@H]1[C@H](O)[C@@H]2[C@H](CC[C@]3(C)[C@@H]([C@H](C)CCCO)CC[C@@H]23)[C@@]2(C)CC[C@@H](O)C[C@@H]12 [BAR501, 6β-ethyl-3α,7β-dihydroxy-5β-cholan-24-ol] .
64.5
